B1: glmS ribozyme (parent)
chain: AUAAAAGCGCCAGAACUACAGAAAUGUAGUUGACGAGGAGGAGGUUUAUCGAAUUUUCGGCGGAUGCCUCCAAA

Variants of: B1
measurement_description: self-cleavage kobs at 640 uM GlcN6P; higher = faster cleavage; RNA array
experimental_context: with glucosamine-6-phosphate
Variants at the floor of the assay were thinned out.
In this section, each of the variants is paired with its reported self-cleavage kobs at 640 uM GlcN6P.

Below are worked cases with known answers.
seq	self-cleavage kobs at 640 uM GlcN6P
AUAAAAGCGCCCGAACUACAGAAAUGUAGUUGACGAGGAGGAGGUUUAUGGAAUUUUCGGCGGAUCCCUCCAAA	7.92e-05 s⁻¹
AUAAAAGCGCCAGAACUACAGAAAUGUAGUUGACGAGGAGGAGGUUUAUCGAAUUUUCGGCGGAGGCCACCAAA	5.5e-05 s⁻¹
AUAAAAGCGCCAGAACUACAGAAAUGUAGAUGGCGCGGAGGAGGUUUAUCGAAUUUUCGGCGGAUGCCUCCAAA	< 1e-05 s⁻¹

query: Can you share its self-cleavage kobs at 640 uM GlcN6P? I mean this variant: `AUAAAAGCGCCAGACCUACAGAAAUGUAGUUGACGAGGAGGAGGUUUAUCGAAUUUUCGGCGGAUGCCUGAAAA`
result: 6.35e-05 s⁻¹

query: What value of self-cleavage kobs at 640 uM GlcN6P has been recorded for this entry: `AUAAAAGCGACCGAACUACAGAAAUGUAGUUGACGAGGAGGAGGUUUAUCGAAUUUUCGGCGCAUGCCUCGAAA`
result: < 1e-05 s⁻¹

query: Returns the measured self-cleavage kobs at 640 uM GlcN6P for the input variant. Input: `AUAAAAGCGGAAGAACUACAGAAAUGUAGUUGACGAGGUGGAGGUUUAUCGAAUUUUCGGCGGAUGCCUCCAAA`
result: < 1e-05 s⁻¹

query: Please report the recorded self-cleavage kobs at 640 uM GlcN6P for `AUAAAAGCUCCAGAACUACAGAAAUGUAGUUGACGAGGAGGAGGUUCAUCGAAUUUUCGGCGGAUGCCUCCAAA` .
result: < 1e-05 s⁻¹

query: Value lookup for self-cleavage kobs at 640 uM GlcN6P; key = `AUAAAAGCGCCGGAACUACAGAAAUGUAGUUGACGCGGCGGAGGUUUAUCGAAUUUUCGGCGGAUGCCUCGAAA`
result: < 1e-05 s⁻¹

query: Fill blank: measured self-cleavage kobs at 640 uM GlcN6P of the variant `AUAAAUGCGCCAGAACUACAGAAAUGUAGUUGACGAGGAGGAGGUUUAUCGAAGUUUCGGCGGAUGCCUCCAAA` is ____.
result: 3.62e-05 s⁻¹

query: For `AUAAAAGCGCCAGAACUACAGAAAUGUAGGUGACGAGGAGGAUGUUUAUCGAAUUUUCGGCGGAUGCCUCCAAA` , what is its reported self-cleavage kobs at 640 uM GlcN6P?
result: < 1e-05 s⁻¹

query: Give its self-cleavage kobs at 640 uM GlcN6P value. Item: `AUAAAAGCGCCAGAACUACAGAAAUGUAGUUGACGAGGAGGAGGUUUAUCGAAUGGUCGGCGGAUGCCUCCAAA`
result: 0.00307 s⁻¹

query: self-cleavage kobs at 640 uM GlcN6P lookup needed for `AUAAAAGCGCCAGAGCUACAGAAAUGUAGUUGACGAGUAGGAGGUUUAUCGAAUUUUCGGCGGAUGCCUCCAAA` , thanks.
result: < 1e-05 s⁻¹

query: Would you kindly share the measured self-cleavage kobs at 640 uM GlcN6P for `AUAAAAGCGCCAGAACUACAGAAAUGUACUUGACGAGGAAGAGGUUUAUCGAAUUUUCGGCGGAUGCCUCCAAA` ?
result: 0.000102 s⁻¹

query: Would you kindly share the measured self-cleavage kobs at 640 uM GlcN6P for `AUAAAAGCGCCAGAACUACAGAAAUGUAGUUGACGAGGAGGAGGUUUAUCGGAUUUUCGGGGGAUGCCACCAAA` ?
result: 0.000109 s⁻¹

query: Quick check: self-cleavage kobs at 640 uM GlcN6P of `AUAAAAGCGCCAGAACUACAGAAAUGUAGUUGACGAGGAGGAGAUUUAUCGAAUUUUCGGCGGAUGCCUCCAAA` ?
result: 0.000135 s⁻¹

query: State the recorded self-cleavage kobs at 640 uM GlcN6P for this entry: `AUAAAAGCGCCGGAACUACAGAAAUGUAGUUGACGAGGAGGAGGAUUAUCGAAUUUUCGGCGGAUGCCUCCAAA`
result: 0.00041 s⁻¹

query: Entry under review: `AUAAAAGCGCCAGAACUACAGAAAUGUAGUUGACGAGGAGGAGGUAUAUCGAAUCUUCGGCGGAUGCCUCCAAA` . Reported self-cleavage kobs at 640 uM GlcN6P?
result: 0.00095 s⁻¹

query: Requested read-out: self-cleavage kobs at 640 uM GlcN6P. Entry: `AUAAAGGCGCCAGAACUACAGAAAUGUAGUUGACGGGGAGAAGGUUUAUCGAAUUUUCGGCGGAUGCCUCCAAA`
result: < 1e-05 s⁻¹

query: Item under review: `AUAAAAGCGCCAUAACUACAGAAAUGUAGUUGACGAUGAAGAGGUUUAUCGAAUUUUCGGCGGAUGCCGCCAAA` . Reported self-cleavage kobs at 640 uM GlcN6P?
result: < 1e-05 s⁻¹

Reference source: the supplement of paper PMC7125110
